Assay: yeast display, Sf9 membrane polyspecificity reagent, FACS + sequencing; frameworks hold sequencing errors

[
  {
    "Residue string": "QVQLVESGGGLVQAGGSLRLSCAASGSTFDGNAMGWYRQAPGKERELVAAITSGGSTNYADSVKGRFTISRDNAKNTVYLQMNSLKPEDTAVYYCAADTVSFSILYDYWGQGTQVTVSS",
    "polyreactivity (PSR sort gate)": "low polyreactivity"
  },
  {
    "Residue string": "QVQLVESGGGLVQAGGSLRLSCAASGRTFYGYAMGWYRQAPGKEREFVAAINWSGGTTYYADSVKGRFTISRDNAKNTVYLQMNSLKPEDTAVYYCAADYYRIRRWPGYYAYDYWGQGTQVTVSS",
    "polyreactivity (PSR sort gate)": "high polyreactivity"
  },
  {
    "Residue string": "QVQLVESGGGLVQAGGSLRLSCAASGRIFSLYAMGWYRQAPGKEREFVAAISKSSGGTYYADSVKGRFTISRDNAKNTVYLQMNSLKPKDTAVYYCNARFVIGWVRKLDYWGQGTQVTVSS",
    "polyreactivity (PSR sort gate)": "high polyreactivity"
  },
  {
    "Residue string": "QDQLVESGGGLVQAGGSLRLSCAASGRTIKTYAMGWYRQAPGKVRELVAAIRRRGGSTYYADSVKGRFTISRDNAKNTVYLQMHSLKPEDTAVYYCAAGYVTYRDAHVSMDYCGQGTQVTVSS",
    "polyreactivity (PSR sort gate)": "high polyreactivity"
  },
  {
    "Residue string": "QVQLVESGGGLVQAGGSLRLSCAASGSTFTDNAMGWYRQAPGKERELVAAITSGSSTNYADSVKGRFTISRDNAKNTVYLQMNSLKPEDTAVYYCATCQEPQYSTGDYWGQGTQVTVSS",
    "polyreactivity (PSR sort gate)": "low polyreactivity"
  },
  {
    "Residue string": "QVQLVESGGGLVQAGGSLRLSCAASGSTFRVYAMGWYRQAPGNERELVAAISLSGGRTYYADSVKGRFTISRDNAKNTVYLQMNSLKPEDTAVYYCARRYRDYGRYGYWGQGTQVTVSS",
    "polyreactivity (PSR sort gate)": "high polyreactivity"
  },
  {
    "Residue string": "QVQLVESGGGLVQAGGSLRLICAASALIFGAYTMGWYIQAPGKERELVAAIRRSGSTYYPDSVKGRFTISRDNAKNTVYLQMNSLKPEDTAVYYGNARIGPGRYTYYRSGYDYWGQGTQVTVSS",
    "polyreactivity (PSR sort gate)": "high polyreactivity"
  },
  {
    "Residue string": "QVQLVESGGGLVHAGGSLRLSCAACGRIFTYYAMGWYRQAPGKERELVAAITWSGGSTYYADSVKGRFTISRDNAKNTVYLQMNSLKPEDTAVYYCNAVVLHVTTDNSTFTTDDYWGQGTQVTVSS",
    "polyreactivity (PSR sort gate)": "low polyreactivity"
  },
  {
    "Residue string": "QLQLVESGGGLVQAGGSLRLSCAASGFTFYYNALGWYRQAPGKDRELVSSITRSGGRTYYAESVKGRFTISRENAKNTVYLQKNSLKPEDTAVYFCARRYPGGYYWGQGTQVTVSS",
    "polyreactivity (PSR sort gate)": "high polyreactivity"
  },
  {
    "Residue string": "QVQLVESGGGLVQAGGSLRLSCAASGFTFYRYAMGWYRPAPGKERELVAAITRSGSRTYYADSVKGRFTISRDNAKNTVYLQMNSLKPEDTAVYYCNTDGGDHPTARYGYWGQGTQVTVSS",
    "polyreactivity (PSR sort gate)": "high polyreactivity"
  },
  {
    "Residue string": "QVQLVESGGGLVQAGGSLRLSCAASGSTYKFYAMGWYRQATGKERELVAAISGSSGSTYYADSVKGRFTISRDNAKNTVYLQMNSLKPEDTAVYYWNTQYSRYYTRYSAYDYWGQGTQVTVSS",
    "polyreactivity (PSR sort gate)": "low polyreactivity"
  }
]

All values here come from the nanobody polyreactivity screen of Harvey et al. (2022).
